target: UniProt:Q99705; assay: Displacement of [125I]MCH from human MCHR1 expressed in HEK293 cells; format: cell-based
Below, each entry is listed with its recorded IC50.

compoundStructure	IC50
COc1ccc2c(C)cc(N[C@H]3CC[C@H](NCc4cn(C)c5c4ccc4cccnc45)C3)nc2c1	0.071 µM
COc1ccc2c(C)cc(N[C@H]3CC[C@H](NCc4cn(C)c5ccc(C#N)cc45)C3)nc2c1	0.039 µM
COc1ccc2c(C)cc(N[C@H]3CCC[C@H](NCc4cccc(OC(F)(F)F)c4)C3)nc2c1	0.015 µM
COc1ccc2nc(N[C@H]3C[C@H]4C[C@@H]3[C@@H](NCc3ccsc3)C4)cc(C)c2c1	0.369 µM
COc1ccc2c(C)cc(N[C@H]3CCC[C@H](NCc4ccc(S(C)(=O)=O)cc4Cl)C3)nc2c1	0.05 µM
COc1ccc2nc(NCCCNCc3ccsc3)cc(C)c2c1	0.015 µM
COc1ccc2nc(N3CCC(NCc4ccsc4)CC3)cc(C)c2c1	2.13 µM
FC(F)(F)c1cc(N[C@H]2CCC[C@H](NCc3ccsc3)C2)nc2ccccc12	4.8 µM
COc1cc(N[C@H]2CCC[C@H](NCc3ccsc3)C2)nc2ccc(OC(C)C)cc12	0.231 µM

====

biological target: Melanin-concentrating hormone receptor 1 (Homo sapiens, UniProt Q99705); test: Antagonist activity at human MCHR1 expressed in HEK293 cells assessed as [35S]GTP-gamma-S accumulation; type: functional, cell-based
Sequence (Q99705 whole entry): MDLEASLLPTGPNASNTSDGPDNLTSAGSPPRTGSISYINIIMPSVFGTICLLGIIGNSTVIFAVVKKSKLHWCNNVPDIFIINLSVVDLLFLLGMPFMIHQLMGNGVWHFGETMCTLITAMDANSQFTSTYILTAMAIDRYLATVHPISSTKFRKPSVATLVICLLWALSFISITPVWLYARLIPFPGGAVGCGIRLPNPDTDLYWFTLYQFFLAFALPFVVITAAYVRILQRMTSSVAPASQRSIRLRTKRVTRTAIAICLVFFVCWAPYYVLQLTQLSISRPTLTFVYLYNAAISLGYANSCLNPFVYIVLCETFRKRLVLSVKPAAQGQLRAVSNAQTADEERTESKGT
Decide using IC50 alone. Strictly below 100 nM: met. Equal to or above 100 nM: not met.

compoundStructure	category
COc1ccc2c(C)cc(N[C@H]3CC[C@H](NCc4cn(C)c5ccc(OC(F)F)cc45)C3)nc2c1	met
c1ccc2nc(N[C@H]3CCC[C@H](NCc4ccsc4)C3)ccc2c1	not met
COc1cc(N[C@H]2CCC[C@H](NCc3ccsc3)C2)nc2ccccc12	met
Cc1cc(N[C@H]2CCC[C@H](NCc3ccsc3)C2)nc2ccccc12	met
COc1ccc2c(C)cc(N[C@H]3CC[C@H](NCc4cn(C)c5cc(C#N)ccc45)C3)nc2c1	not met
COc1cccc2nc(N[C@H]3CCC[C@H](NCc4ccsc4)C3)ccc12	met
COc1ccc2c(C)cc(N[C@H]3CCC[C@H](NCc4ccsc4)C3)nc2c1	met
COc1ccc2c(C)cc(N[C@H]3CC[C@H](NCc4cn(C)c5c(C#N)cccc45)C3)nc2c1	not met
COc1ccc2nc(N[C@H]3CCC[C@H](NCc4ccsc4)C3)ccc2c1	met
COc1ccc2c(C)cc(N[C@H]3CC[C@H](NCc4cn(C)c5ccccc45)C3)nc2c1	met
COc1cc(N[C@H]2CCC[C@H](NCc3ccsc3)C2)nc2ccc(F)cc12	met
COc1ccc2c(C)cc(N[C@H]3CC[C@H](NCc4cn(C)c5cccnc45)C3)nc2c1	met

====

experiment: Metabolic stability assessed as intrinsic clearance in human liver microsomes; type: ADME, Microsome

compoundStructure	microsomal CLint
COc1ccc2c(C)cc(N[C@H]3CC[C@H](NCc4cn(C)c5cc(C#N)ccc45)C3)nc2c1	< 12 µL/min/mg
COc1ccc2c(C)cc(N[C@H]3CC[C@H](NCc4cn(C)c5ccc(C#N)cc45)C3)nc2c1	< 12 µL/min/mg
COc1ccc2c(C)cc(N[C@H]3CC[C@H](NCc4cn(C)c5c(C#N)cccc45)C3)nc2c1	< 12 µL/min/mg

The values you see were collected from ChEMBL document CHEMBL1140011.
